B1: TPR t1 (parent)
chain: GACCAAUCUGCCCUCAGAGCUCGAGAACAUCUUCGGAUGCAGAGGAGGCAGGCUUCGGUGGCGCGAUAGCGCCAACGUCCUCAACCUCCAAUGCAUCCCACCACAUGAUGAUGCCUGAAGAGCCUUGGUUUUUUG

- Variants of: B1
- method.summary: polymerase ribozyme fitness, log enrichment relative to wild type (log ratio); higher = more active; in vitro selection for triplet polymerase activity
polymerase ribozyme fitness (log ratio) values, listed per item
When you answer, write just the number.

1) G61U U112C
0.845

Input line: Bench note: what polymerase ribozyme fitness (log ratio) did A2U C40G C53G C72G show?
Output line: -2.9

Input line: Bench note: what polymerase ribozyme fitness (log ratio) did C11U U21C G63A C82U show?
Output line: -1.23

Input line: Bench note: what polymerase ribozyme fitness (log ratio) did C12A A18C show?
Output line: -1.6

Input line: Bench note: what polymerase ribozyme fitness (log ratio) did G60U A100C show?
Output line: -1.26

Input line: Bench note: what polymerase ribozyme fitness (log ratio) did C12A C64U C115U G120A C123A show?
Output line: -1.16

Input line: Bench note: what polymerase ribozyme fitness (log ratio) did C62A C73G G117C U129G show?
Output line: -6.43
